This listing pairs compounds with measured D, discrimination factor, ratio of use of dNTP to comparable ddNTP.
- ASSAY_TARGET: Taq DNA polymerase F667Y (Thermus aquaticus, UniProt P19821, F667Y)
- Assay type: biochemical
- SETTINGS: equal concentrations; D=Y/(1-Y) at X=1
// return just the number, without any unit appended

Query: Respond only with D, discrimination factor, ratio of use of dNTP to comparable ddNTP recorded for Cc1cn([C@H]2CC[C@@H](COP(=O)(O)OP(=O)(O)OP(=O)(O)O)O2)c(=O)[nH]c1=O
Reply: 0.56

Query: Respond only with D, discrimination factor, ratio of use of dNTP to comparable ddNTP recorded for Nc1ncnc2c1ncn2[C@H]1CC[C@@H](COP(=O)(O)OP(=O)(O)OP(=O)(O)O)O1
Reply: 0.59

Query: Respond only with D, discrimination factor, ratio of use of dNTP to comparable ddNTP recorded for Nc1ccn([C@H]2CC[C@@H](COP(=O)(O)OP(=O)(O)OP(=O)(O)O)O2)c(=O)n1
Reply: 0.32

Query: Respond only with D, discrimination factor, ratio of use of dNTP to comparable ddNTP recorded for Nc1nc2c(ncn2[C@H]2CC[C@@H](COP(=O)(O)OP(=O)(O)OP(=O)(O)O)O2)c(=O)[nH]1
Reply: 0.45

###

- ASSAY_TARGET: T7 DNA polymerase (Escherichia phage T7, UniProt P00581, DEL118-145)
- MEASUREMENT_DESCRIPTION: Competition of dATP and ddATP at a single site in synthetic Primer-Template A (Example 4)
- SETTINGS: 10 μM dATP; read-out: [ddATP] for 50% inhibition
- Description: Example 4. Determination of the efficiency of incorporation of dideoxynucleotides by measuring the incorporation of [α-^32 P]dAMP into synthetic primer-template complexes […] Each reaction mixture contains 25 pmoles each of primer and template. […] The disks are then dried under a heat lamp and counted in a scintillation counter in 5 ml of fluor (Opti-Fluor O, Packard). From the amount of radioactivity on each disk, the amount [^32 P]dGMP incorporated was determined. […]
pIC50: −log10 of the molar value.
RECORDED_METRIC: pIC50

Query: Respond only with pIC50 recorded for Nc1ncnc2c1ncn2[C@H]1CC[C@@H](COP(=O)(O)OP(=O)(O)OP(=O)(O)O)O1
Reply: ~4.52

###

This listing pairs compounds with measured Incorporation Rate Ratios dN/ddN.
- ASSAY_TARGET: T7 DNA polymerase (Escherichia phage T7, UniProt P00581, DEL118-145)
- Assay type: biochemical, Bacteriophage T7
- SETTINGS: absolute ratios from 1:1 dNTP:ddNTP test
// return just the number, without any unit appended

COMPOUND_STRING	ASSAY_TARGET	Incorporation Rate Ratios dN/ddN
Cc1cn([C@H]2CC[C@@H](COP(=O)(O)OP(=O)(O)OP(=O)(O)O)O2)c(=O)[nH]c1=O	T7 DNA polymerase (Escherichia phage T7, UniProt P00581, DEL118-145)	2.8
Nc1nc2c(ncn2[C@H]2CC[C@@H](COP(=O)(O)OP(=O)(O)OP(=O)(O)O)O2)c(=O)[nH]1	T7 DNA polymerase (Escherichia phage T7, UniProt P00581, DEL118-145)	3.2
Nc1ncnc2c1ncn2[C@H]1CC[C@@H](COP(=O)(O)OP(=O)(O)OP(=O)(O)O)O1	T7 DNA polymerase (Escherichia phage T7, UniProt P00581, DEL118-145)	3.3

Query: Enter Incorporation Rate Ratios dN/ddN (test system T7 DNA polymerase (Escherichia phage T7, UniProt P00581, DEL118-145)) for Nc1ccn([C@H]2CC[C@@H](COP(=O)(O)OP(=O)(O)OP(=O)(O)O)O2)c(=O)n1
Reply: 3.7
